- Measured Target: c-Myc/Max (Homo sapiens) (UniProt P01106+P61244)
- Experiment Notes: Inhibition of biotin-labeled EBOX dsDNA binding to Myc-Max (unknown origin) at 10 uM preincubated for 15 mins followed by test compound-protein mixture addition to biotin-labeled EBOX dsDNA immobilized chip measured over 2.5 mins by SPR analysis
- Format: protein-complex assay
Calls of active or inactive are those of the source. The calls are words filed in the database; no cut-off is given here.
The categories you may choose from are active, inactive

Prompt: Kindly provide the recorded test outcome for the following compound: "N#Cc1ccc(-c2cc(-c3ccc(C(N)=O)cc3)nc(-c3ccco3)n2)cc1"
Response: active

Prompt: Any idea what this test logged for "N#Cc1ccc(-c2cc(-c3ccc(C(N)=O)cc3)cc(-c3cnco3)n2)cc1" ?
Response: inactive

Prompt: // param item: "CNC(=O)c1ccc(-c2cc(-c3ccc(C#N)cc3)nc(-c3ccco3)c2)cc1" ; yields the recorded call
Response: active

Prompt: Could you kindly confirm the outcome this assay logged for "N#Cc1ccc(-c2cc(-c3ccc(-c4nnn[nH]4)cc3)cc(-c3ccco3)n2)cc1" ?
Response: active

Prompt: Please indicate how the test categorized "N#Cc1ccc(-c2cc(-c3ccc(C(N)=O)cc3)nc(-c3cc[n+]([O-])cc3)n2)cc1" .
Response: inactive

Prompt: Each compound tested received a call. Report the one for "Cn1nncc1-c1cc(-c2ccc(C(N)=O)cc2)cc(-c2ccc(C#N)cc2)n1" .
Response: active

Prompt: What did this assay record as the result for "N#Cc1ccc(-c2cc(-c3ccc(C(N)=O)cc3)cc(-c3cncs3)n2)cc1" ?
Response: active

----------
- Measured Target: c-Myc/Max (Homo sapiens) (UniProt P01106+P61244)
- Experiment Notes: Inhibition of biotin-labeled EBOX dsDNA binding to Myc-Max (unknown origin) at 10 uM preincubated for 15 mins followed by test compound-protein mixture addition to biotin-labeled EBOX dsDNA immobilized chip measured over 2.5 mins by SPR analysis
- Assay type: protein-complex assay
Calls of active or inactive are those of the source. The rule behind the calls is not given here.
Value Kind: inhibition

{"Structure Smiles String": "CS(=O)(=O)NC(=O)c1ccc(-c2cc(-c3ccc(C#N)cc3)nc(-c3ccco3)c2)cc1", "Measured Target": "c-Myc/Max (Homo sapiens) (UniProt P01106+P61244)", "inhibition": "Active"}
{"Structure Smiles String": "N#Cc1ccc(-c2cc(-c3ccc(C(N)=O)cc3)cc(-c3ccco3)n2)cc1", "Measured Target": "c-Myc/Max (Homo sapiens) (UniProt P01106+P61244)", "inhibition": "Active"}
{"Structure Smiles String": "Cn1ccnc1-c1cc(-c2ccc(C(N)=O)cc2)cc(-c2ccc(C#N)cc2)n1", "Measured Target": "c-Myc/Max (Homo sapiens) (UniProt P01106+P61244)", "inhibition": "Active"}
{"Structure Smiles String": "NC(=O)c1ccc(-c2cc(-c3ccc(-c4nccs4)cc3)nc(-c3ccco3)c2)cc1", "Measured Target": "c-Myc/Max (Homo sapiens) (UniProt P01106+P61244)", "inhibition": "Active"}
{"Structure Smiles String": "c1coc(-c2cc(-c3nccs3)cc(-c3ccc(-c4nccs4)cc3)n2)c1", "Measured Target": "c-Myc/Max (Homo sapiens) (UniProt P01106+P61244)", "inhibition": "Active"}
{"Structure Smiles String": "NC(=O)c1ccc(-c2cc(-c3ccc(-c4cnco4)cc3)nc(-c3ccco3)c2)cc1", "Measured Target": "c-Myc/Max (Homo sapiens) (UniProt P01106+P61244)", "inhibition": "Active"}
{"Structure Smiles String": "COc1ccc(-c2cc(-c3ccc(C(N)=O)cc3)nc(-c3ccccc3)n2)cc1", "Measured Target": "c-Myc/Max (Homo sapiens) (UniProt P01106+P61244)", "inhibition": "inactive"}
{"Structure Smiles String": "N#Cc1ccc(-c2cc(-c3ccc(C(N)=O)cc3)cc(-c3cccc(F)c3)n2)cc1", "Measured Target": "c-Myc/Max (Homo sapiens) (UniProt P01106+P61244)", "inhibition": "inactive"}

Prompt: Specify inhibition for "N#Cc1ccc(-c2cc(-c3ccc(C(=O)NN)cc3)cc(-c3ccco3)n2)cc1" and stop.
Response: inactive
